- tested_target: Mouse MHC Class I (mouse B6 class I antigens, H-2^b: D^b or K^b) on RMA-S cells (mouse)
- assay_notes: RMA-S MHC stabilisation, flow cytometry with FITC anti-D^b or anti-K^b
parameter_measured: Binding Affinity to Mouse MHC Class I (percent increase of D^b or K^b on RMA-S cells) (%)
Quick reminder: number only, in %, skip the unit.

Reference set (5 entries):
MFPNAPYLP [WT1 peptide P127-135 …]; 2
PSQASSGQA [WT1 peptide P117-125 …]; 2
APYLPSCLE [WT1 peptide P131-139 …]; 1
QARMFPNAP [WT1 peptide P124-132 …]; 1
SSGQARMFP [WT1 peptide P121-129 …]; 1

Proceed to the following item.
# get_value(readout='Binding Affinity to Mouse MHC Class I (percent increase of D^b or K^b on RMA-S cells)', item= PNAPYLPSC [WT1 peptide P129-137 …] )
1
